// provenance: ChEMBL document CHEMBL1777757

// each record: one item and its log10(IC50) for cAMP and cAMP-inhibited cGMP 3',5'-cyclic phosphodiesterase 10A (Homo sapiens)
measuredProperty: log10(IC50) (log10 of the value in nM)

- compoundStructureString: "CCOC(=O)CSc1nc2ccccc2c2nc(C)nn12"
  observedValue: 3.48
- compoundStructureString: "COc1ccc2nc(SCC#N)n3nc(C)nc3c2c1"
  observedValue: 2.40
- compoundStructureString: "Cc1nc2c3c(Br)cccc3nc(SCC#N)n2n1"
  observedValue: 3.00
- compoundStructureString: "COc1cc2nc(SCC#N)n3nc(C)nc3c2cc1OC"
  observedValue: 2.90
- compoundStructureString: "Cc1nc2c3cc(N4CCOCC4)ccc3nc(SCC#N)n2n1"
  observedValue: 3.95
- compoundStructureString: "Cc1ccc2c(c1)nc(SCC#N)n1nc(C)nc21"
  observedValue: 3.04
- compoundStructureString: "Cc1nc2c3c(C(F)(F)F)cccc3nc(SCC#N)n2n1"
  observedValue: 2.65
- compoundStructureString: "Nc1nc2c3ccccc3nc(-c3ccccc3Br)n2n1"
  observedValue: 3.00
- compoundStructureString: "CCSc1nc2ccccc2c2nc(C)nn12"
  observedValue: 3.38
- compoundStructureString: "Cc1nc2c3ccccc3nc(SCC(N)=O)n2n1"
  observedValue: 3.11
- compoundStructureString: "Cc1nc2c3cc(Br)ccc3nc(SCC#N)n2n1"
  observedValue: 1.54
- compoundStructureString: "Cc1nc2c3ccc(C(F)(F)F)cc3nc(SCC#N)n2n1"
  observedValue: 3.28
- compoundStructureString: "Cc1nc2c3ccc(F)cc3nc(SCC#N)n2n1"
  observedValue: 2.51
- compoundStructureString: "Cc1nc2c3cc(Cl)ccc3nc(SCC#N)n2n1"
  observedValue: 2.11
- compoundStructureString: "Cc1nc2c3ccccc3nc(SCc3cn4ccccc4n3)n2n1"
  observedValue: 1.18
- compoundStructureString: "Cc1nc2c3c(C)cccc3nc(SCC#N)n2n1"
  observedValue: 2.23
- compoundStructureString: "Cc1nc2c3ccccc3nc(SCc3nc4ccccc4n3C)n2n1"
  observedValue: 1.15
- compoundStructureString: "Cc1nc2c3ccccc3nc(SCc3nc(-c4ccccc4)cn3C)n2n1"
  observedValue: 2.28
- compoundStructureString: "Cc1nc2c3cccc(F)c3nc(SCC#N)n2n1"
  observedValue: 3.18
- compoundStructureString: "COc1cc2ncnc(N3CC[C@@H](Oc4cnc5ccccc5n4)C3)c2cc1OC"
  observedValue: 1.81
- compoundStructureString: "Cc1nc2c3ccccc3nc(SCc3ccncc3)n2n1"
  observedValue: 2.58
- compoundStructureString: "CSc1nc2ccccc2c2nc(C)nn12"
  observedValue: 3.26
- compoundStructureString: "Cc1nc2c3ccccc3nc(SCc3nc(-c4ccccc4Cl)cn3C)n2n1"
  observedValue: 2.18
- compoundStructureString: "Cc1nc2c3cc(F)ccc3nc(SCC#N)n2n1"
  observedValue: 2.66
- compoundStructureString: "Cc1nc2c3ccccc3nc(SCC#N)n2n1"
  observedValue: 2.49
- compoundStructureString: "N#CCSc1nc2ccccc2c2nc(/C=N/O)nn12"
  observedValue: 2.98
- compoundStructureString: "Cc1nc2c3ccccc3nc(SCCN3CCOCC3)n2n1"
  observedValue: 3.40
- compoundStructureString: "Cc1nc2c3ccc(Br)cc3nc(SCC#N)n2n1"
  observedValue: 3.36
